Entries and their measured melting point follow.

# Molecule, melting point, °C
measured = [
    ("CC(NC(=O)CNC(=O)c1c(Cl)cccc1Cl)c1ccccc1 (stereo not given)", 155),
    ("CCCCOc1ccc(S(=O)(=O)C2(C(=O)O)CCN(Cc3ccc(C#N)cc3)CC2)cc1", 242),
    ("COc1ccc(C2C(C(=O)c3ccc(OC(F)(F)F)cc3)=C(O)C(=O)N2c2ccc(C)nn2)cc1 (stereo not given)", 279),
    ("CCC(=NOCCO)c1ccc(-c2ccccc2)cc1", 76),
]

###

Entries and their melting point values follow.
Measurement name: melting point

# Compound, Data value
records = [
    ("COc1cc(NC(=O)Nc2ccc3c(c2)CCN(C(=O)Nc2ccc(OCC(O)CO)cc2Cl)C3)cc(OC)c1 (centres undefined)", "108 to 110 °C"),
    ("CCOc1cccnc1C(=O)NCCNC(=O)OC(C)(C)C", "125 to 126 °C"),
    ("CCOC(=O)CNc1c(C)cc(C(O)(C(F)(F)F)C(F)(F)F)cc1C", "91 to 93 °C"),
    ("c1ccc(-c2nn[nH]c2-c2ccccc2)cc1", "131 °C"),
    ("COc1nc(C)c(Nc2nc(Cl)cn([C@H](COC(=O)Nc3cccc(C#N)c3)C3CC3)c2=O)cc1C", "206 to 207 °C"),
    ("NC(=NO)c1ncn2c1[C@@H]1CCCN1C(=O)c1c(Br)cccc1-2", "235 to 237 °C"),
    ("O=c1c(-c2cccc(C(F)(F)F)c2)coc2c(O)c(O)ccc12", "225 °C"),
    ("CC1(C)CC(OC(=O)Nc2ccccc2)CC(C)(C)N1CC(O)c1ccccc1 (centres undefined)", "186 to 187 °C"),
    ("Cc1nc(C)c(Cl)c(NCc2nccc(SCCCN3CCN(CC4CN(Cc5ccncc5)C(=O)O4)CC3)c2C)n1 (centres undefined)", "123 to 126 °C"),
    ("COc1ccc(F)c(F)c1C(=O)c1cnc(NC2CCN(S(N)(=O)=O)CC2)nc1N", "217 to 218 °C"),
    ("Cc1ccccc1NC(=O)C1Sc2ccccc2N(C)C1=O (centres undefined)", "187 to 188 °C"),
    ("CCCc1nn(C)c2c(=O)n(CCOc3cccc(OC(C)(C)C(=O)O)c3)c(C)nc12", "140 to 142 °C"),
    ("OC1CCN(c2ncc(-c3cccc(Cl)c3)cn2)CC1", "160 to 162 °C"),
    ("COC(=O)C(Cc1ccc(Cl)cc1Cl)c1c(Cl)cccc1Cl (centres undefined)", "115 °C"),
    ("CCn1cc(C(=O)O)c(=O)c2c(F)c(F)c(N3CCSCC3)c(F)c21", "308 to 310 °C"),
    ("O=C(NC1CCCCC1)N(CCCN1CCC(Cc2ccccc2)CC1)c1ccccc1", "106 to 108 °C"),
    ("O=C1N(C(c2ccccc2)c2ccccc2)c2ccccc2C12COc1ccc(-c3cccnc3)cc12 (centres undefined)", "204 to 207 °C"),
    ("Cc1cc(NCc2ccc3oc(-c4ccccc4C#N)c(Br)c3c2)n2nccc2n1", "210 to 215 °C"),
    ("Nc1nc(Cl)c(-c2ccc(Cl)cc2Cl)c(Cl)n1", "211 to 213 °C"),
    ("CN(c1ccc2ccccc2c1)S(=O)(=O)C(Cc1ccccc1)C(=O)NC(Cc1ccc(C#N)cc1)C(=O)N1CCCC1 (centres undefined)", "186 °C"),
    ("COc1cc(OC)nc(NC(=O)NS(=O)(=O)c2c3ccccc3nn2C)n1", "199 to 202 °C"),
    ("CNC(=O)O/N=C(/SC)C(F)(F)F", "83 to 85 °C"),
    ("COCCCn1nnnc1-c1ccc(O)c(Br)c1O", "174 to 175 °C"),
    ("CCCCC1OC(=O)c2cc(NC(=O)OCC)ccc21 (centres undefined)", "125 to 126 °C"),
    ("CC(=O)NC[C@H]1CN(c2ccc(C3CCN(C(=O)OC(C)(C)C)CC3)c(F)c2)C(=O)O1", "144 to 146 °C"),
    ("CC1CCCN1Cc1ccc(N/C=C2\\C(=O)NC(=O)c3ccc(I)cc32)cc1 (centres undefined)", "157 to 158 °C"),
    ("CN(Cc1ccccc1)C(=O)Nc1cc(C(C)(C)C)on1", "107 to 108 °C"),
    ("O=[N+]([O-])c1cc(-n2ccnc2)ccc1Sc1cccc2cnccc12", "187 to 189 °C"),
    ("COC(=O)c1ccc(CBr)c(NC(=O)c2ccc(C(C)(C)C)cc2C(=O)OC(C)(C)C)c1", "135 °C"),
    ("c1cncc(CSc2nnc(-c3ccc4c(c3)CCO4)o2)c1", "118 to 122 °C"),
    ("CCOC(=O)C1=C(C)C2=C(CC1)SCCC2=O", "99 to 100 °C"),
    ("O=C(Nc1ccc(N2C[C@@H]3C[C@H]2CO3)c(F)c1)OCc1ccccc1", "120 to 121 °C"),
    ("CC/C=C/CNC(=O)[C@H]1N(C(=O)[C@@H](O)[C@H](Cc2ccccc2)NC(=O)c2cccc(O)c2C)CSC1(C)C", "113 to 115 °C"),
    ("COc1ccc(C(C)(O)CO)cc1CN[C@H]1C2CCN(CC2)[C@H]1C(c1ccccc1)c1ccccc1 (some centres undefined)", "65.5 to 82.8 °C"),
    ("CCOC(=O)c1ccc(OCc2nc(C)c(C)nc2C)cc1", "75 to 75.7 °C"),
    ("CCCCCCCOc1ccc(COc2ccc3c(c2)CC(CC(=O)O)C3OC)cc1 (centres undefined)", "80 to 82 °C"),
    ("CNc1cc(Oc2ccc3c(c2)OCCN3C(=O)Nc2cccc(C(F)(F)F)c2)ncn1", "180 °C"),
    ("N#Cc1ccc(Cn2cncn2)c(-c2ccc(OS(N)(=O)=O)c(Cl)c2)c1", "139 to 142 °C"),
    ("O=c1c2ccccc2[nH]c2c(OCCCCN(CCO)CCO)cccc12", "124 to 126 °C"),
]

Taken from a melting point compilation (Tetko et al.; mined from patent text by program, amines drawn as free bases though some values may be those of a salt).
